Data credit: patent US7772241B2

For each entry below, report its log10(CC50) value.
Test system: LNCaP
Assay: Inhibition of cells growth by colorimetric (SRB) assay, LNCaP
Conditions: read-out: LC50 LN-caP; SRB assay, 48 hours exposure
A value of 2 here means CC50 of 100 in µM, since values are log10.

See these solved cases before continuing.
{"compound": "Nc1nccc2c(-c3ccncn3)c3c(O)ccnc3n12 [Compound 100]", "log10(CC50)": 1.04}
{"compound": "CCOc1nccc(-c2c3cccnc3n3c(N)nccc23)n1.Cl [Compound 82]", "log10(CC50)": 0.36}
{"compound": "Cc1ccc2c(-c3ccnc(N)n3)c3ccnc(N)n3c2n1.Cl [Compound 44]", "log10(CC50)": 0.25}
{"compound": "Cl.Nc1nccc2c(-c3ccncn3)c3c(O)ccnc3n12 [Compound 101]", "log10(CC50)": 0.68}
{"compound": "Nc1nccc(-c2c3cc4ccccc4nc3n3c(N)nccc23)n1 [Compound 19a]", "log10(CC50)": 1.35}
{"compound": "COc1nccc(-c2c3cccnc3n3c(N)nccc23)n1.Cl [Compound 81]", "log10(CC50)": 0.44}
{"compound": "Cl.Nc1nccc(-c2c3cc4ccccc4nc3n3c(N)nccc23)n1 [Compound 42]", "log10(CC50)": 0.78}

Item COc1ccnc2c1c(-c1ccnc(N)n1)c1ccnc(N)n12.Cl [Compound 116] has what recorded log10(CC50)? 0.39

---

Test system: PANC-1
Assay: Inhibition of cells growth by colorimetric (SRB) assay, PANC-1
Conditions: Homo sapiens, PANC-1, 48 h, read-out: LC50 PANC-1, SRB assay, 48 hours exposure
recorded metric: CC50 (µM)
Answers are plain numbers, in µM.

Dear colleague, could you send me CC50 for each of the items below? Thanks.
1. COc1ccc2nc3c(cc2c1)c(-c1ccnc(N)n1)c1ccnc(N)n13 [Compound 19b]
2. CSc1nccc(-c2c3c(Cl)ccnc3n3c(N)nccc23)n1
3. CS(=O)(=O)c1nccc(-c2c3c(Cl)ccnc3n3c(N)nccc23)n1
4. Nc1nccc2c(-c3ccncn3)c3c(OCc4ccccc4)ccnc3n12
5. CCOc1nccc(-c2c3cccnc3n3c(N)nccc23)n1.Cl
6. Cc1ccc2c(-c3ccnc(N)n3)c3ccnc(N)n3c2n1.Cl

28
29.2
24.6
19
29.2
27.5

---

For each entry below, report its log10 GI50 value.
System: SK-MEL-28
Test: Inhibition of cells growth by colorimetric (SRB) assay, SK-MEL-28
Settings: Homo sapiens, SK-MEL-28, 48 h, read-out: MEL-28 GI50, SRB assay, 48 hours exposure
A value of 2 here means GI50 of 100 in nM, since values are log10.

{"molecule": "Nc1nccc(-c2c3cccnc3n3c(N)nccc23)n1 [Deoxyvariolin 4, deoxyvariolin B, reference compound]", "log10 GI50": 1.84}
{"molecule": "CSc1nccc(-c2c3ccc(C)nc3n3c(N)nccc23)n1", "log10 GI50": 2.93}
{"molecule": "CSc1nccc(-c2c3cccnc3n3c(N)nccc23)n1.Cl", "log10 GI50": 3.03}

Dear colleague, could you send me log10 GI50 for each of the items below? Thanks.
1. CSc1nccc(-c2c3c(Cl)ccnc3n3c(N)nccc23)n1.Cl
2. CSc1nccc(-c2c3cc4ccccc4nc3n3c(N)nccc23)n1 [Compound 18a]
3. CS(=O)(=O)c1nccc(-c2c3cccnc3n3c(N)nccc23)n1

[2.97, 3.70, 3.74]

Dear colleague, could you send me log10 GI50 for each of the items below? Thanks.
1. Cl.Nc1nccc(-c2c3c(Cl)ccnc3n3c(N)nccc23)n1
2. Cl.Nc1nccc(-c2c3c(O)ccnc3n3c(N)nccc23)n1
3. CSc1nccc(-c2c3cccnc3n3c(N(C(C)=O)C(C)=O)nccc23)n1

1. 3.12
2. 2.98
3. 2.31

Dear colleague, could you send me log10 GI50 for each of the items below? Thanks.
1. CSc1nccc(-c2c3c(N)ccnc3n3c(N)nccc23)n1.Cl
2. CSc1nccc(-c2c3cccnc3n3c(NC(C)=O)nccc23)n1

1: 2.88; 2: 3.34

---

Test system: IGROV-1
Experiment: Inhibition of cells growth by colorimetric (SRB) assay, IGROV-1
Conditions: read-out: IGROV LC50; SRB assay, 48 hours exposure
recorded metric: CC50

Item CSc1nccc(-c2c3c(O)ccnc3n3c(N)nccc23)n1 [Compound 95] has what recorded CC50? ≥ 30.8 µM

---

Tested on: LoVo
Assay: Inhibition of cells growth by colorimetric (SRB) assay, LoVo
Details: read-out: LC50 LOVO; SRB assay, 48 hours exposure
recorded metric: CC50 (µM)
Give bare numbers, in µM.

See these solved cases before continuing.
{"compound": "Cl.Nc1nccc(-c2c3c(N)ccnc3n3c(N)nccc23)n1", "CC50 / µM": 6.82}
{"compound": "Cl.Nc1nccc(-c2c3cc4ccccc4nc3n3c(N)nccc23)n1", "CC50 / µM": 25}
{"compound": "Nc1nccc(-c2c3c(N)ccnc3n3c(N)nccc23)n1", "CC50 / µM": 1.56}

Dear colleague, could you send me CC50 for each of the items below? Thanks.
1. Cc1ccc2c(-c3ccnc(N)n3)c3ccnc(N)n3c2n1.Cl
2. COc1ccnc2c1c(-c1ccnc(N)n1)c1ccnc(N)n12.Cl
3. COc1ccnc2c1c(-c1ccnc(N)n1)c1ccnc(N)n12
4. Nc1nccc(-c2c3cc4ccccc4nc3n3c(N)nccc23)n1 [Compound 19a]

2.75
26.3
10.3
11.1

---

Test: Inhibition of cells growth by colorimetric (SRB) assay, HMEC1
Details: human, HMEC1 cells, LC50 H-MEC-1, SRB assay, 48 hours exposure
Hi! Just check whether CC50 at 48 h is below 20 µM. Below gives T, equal or above gives F.

{"compound": "COc1ccc(CNc2ccnc3c2c(-c2ccnc(SC)n2)c2ccnc(NCc4ccc(OC)cc4)n23)cc1", "class label": "T"}
{"compound": "Nc1nccc(-c2c3cccnc3n3ccccc23)n1", "class label": "F"}

CC50 at 48 h under 20 µM? Item: Nc1nccc(-c2c3cc(Cl)cnc3n3c(N)nccc23)n1 T

---

For each entry below, report its CC50 value.
System: HT-29
Assay: Inhibition of cells growth by colorimetric (SRB) assay, HT-29
Details: read-out: HT-29 LC50; SRB assay, 48 hours exposure

See these solved cases before continuing.
{"record smiles": "CSc1nccc(-c2c3c(O)ccnc3n3c(N)nccc23)n1", "recorded metric": "CC50", "result": "≥ 30.8 µM"}
{"record smiles": "CSc1nccc(-c2c3ccc(C)nc3n3c(N)nccc23)n1", "recorded metric": "CC50", "result": "≥ 31 µM"}

We next turn to a different compound, shown below.
Item COc1cccc(-c2c3cccnc3n3c(N)nccc23)c1 has what recorded CC50? 34.4 µM

---

Test system: LoVo
Test: Inhibition of cells growth by colorimetric (SRB) assay, LoVo
Conditions: Homo sapiens, LoVo, 48 h, read-out: GI50 LOVO, SRB assay, 48 hours exposure
Method: The finality of these assays is to interrupt the growth of a “in vitro” tumor cell culture by means a continued exhibition of the cells to the sample to be testing. […] Cells are seeded in 96 well microtiter plates, at 5×10^3 cells per well in aliquots of 195 μl medium, and they are allowed to attach to the plate surface by growing in drug free medium for 18 hours. […] Optical densities are read on a automated spectrophotometric plate reader at a single wavelength of 490 nm. […]
recorded metric: GI50 (nM)
Numbers only, in nM.

See these solved cases before continuing.
{"compound": "C[S+]([O-])c1nccc(-c2c3c(Cl)ccnc3n3c(N)nccc23)n1 (stereo not drawn)", "tested on": "LoVo", "recorded metric": "GI50", "unit abbrev": "nM", "numeric value": 1380}
{"compound": "Cl.Nc1nccc2c(-c3ccncn3)c3cccnc3n12", "tested on": "LoVo", "recorded metric": "GI50", "unit abbrev": "nM", "numeric value": 318}
{"compound": "CSc1nccc(-c2c3cccnc3n3c(N(C(C)=O)C(C)=O)nccc23)n1", "tested on": "LoVo", "recorded metric": "GI50", "unit abbrev": "nM", "numeric value": 415}
{"compound": "CCOc1nccc(-c2c3cccnc3n3c(N)nccc23)n1.Cl", "tested on": "LoVo", "recorded metric": "GI50", "unit abbrev": "nM", "numeric value": 665}

Dear colleague, could you send me GI50 for each of the items below? Thanks.
1. Nc1nccc(-c2c3c(N)ccnc3n3c(N)nccc23)n1
2. Nc1nccc2c(-c3ccnc(O)n3)c3c(O)ccnc3n12
3. Nc1nccc2c(-c3cccc([N+](=O)[O-])c3)c3cccnc3n12
4. COc1ccnc2c1c(-c1ccnc(N)n1)c1ccnc(N)n12

[276, 24500, 23300, 540]

---

Test system: DU-145
Assay: Inhibition of cells growth by colorimetric (SRB) assay, DU-145
Settings: Homo sapiens, DU-145, 48 h, read-out: GI50 DU-145, SRB assay, 48 hours exposure
recorded metric: GI50 (µM)
Numbers only, in µM.

{"compound": "Nc1nccc(-c2c3c(O)ccnc3n3c(N)nccc23)n1 [Variolin B1, variolin B, reference compound]", "GI50 [µM]": 0.893}
{"compound": "Nc1nccc(-c2c3c(N)ccnc3n3c(N)nccc23)n1", "GI50 [µM]": 0.355}
{"compound": "CSc1nccc(-c2c3cccnc3n3c(N(C(C)=O)C(C)=O)nccc23)n1", "GI50 [µM]": 0.581}
{"compound": "COc1nccc(-c2c3c(Cl)ccnc3n3c(N)nccc23)n1", "GI50 [µM]": 0.716}

Dear colleague, could you send me GI50 for each of the items below? Thanks.
1. CCOc1nccc(-c2c3cccnc3n3c(N)nccc23)n1.Cl
2. COc1nccc(-c2c3c(O)ccnc3n3c(N)nccc23)n1
3. Nc1nccc(-c2c3cc(F)c(Cl)nc3n3c(N)nccc23)n1
4. COc1ccc2nc3c(cc2c1)c(-c1ccnc(N)n1)c1ccnc(N)n13 [Compound 19b]
5. CSc1nccc(-c2c3cccnc3n3ccccc23)n1

[0.715, 14.2, 16.5, 5.79, 11.4]
